TEST SYSTEM: T1, mfNPR1-mFc (monkey)
T1 construct: also called dimeric monkey NPR1
T1 chain: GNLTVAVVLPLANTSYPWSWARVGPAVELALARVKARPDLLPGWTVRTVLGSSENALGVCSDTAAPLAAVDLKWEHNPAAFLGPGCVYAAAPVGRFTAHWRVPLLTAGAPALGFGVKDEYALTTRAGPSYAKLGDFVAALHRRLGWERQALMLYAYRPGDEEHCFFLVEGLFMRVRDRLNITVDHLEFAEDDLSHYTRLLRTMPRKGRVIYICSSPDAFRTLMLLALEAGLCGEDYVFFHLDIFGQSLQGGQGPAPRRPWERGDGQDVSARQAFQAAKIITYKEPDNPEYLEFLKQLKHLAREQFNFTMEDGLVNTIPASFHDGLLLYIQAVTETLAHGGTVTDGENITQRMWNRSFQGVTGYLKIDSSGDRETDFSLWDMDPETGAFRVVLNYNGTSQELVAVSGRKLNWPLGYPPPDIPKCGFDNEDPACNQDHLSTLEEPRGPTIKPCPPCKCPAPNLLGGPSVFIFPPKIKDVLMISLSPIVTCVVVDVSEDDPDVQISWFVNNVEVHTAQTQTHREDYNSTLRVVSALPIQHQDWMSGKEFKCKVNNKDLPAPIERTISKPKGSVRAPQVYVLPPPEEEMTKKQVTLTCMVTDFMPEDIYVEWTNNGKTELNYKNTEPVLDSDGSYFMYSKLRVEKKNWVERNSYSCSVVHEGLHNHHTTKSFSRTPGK
METHOD DESCRIPTION: SPR, mAb captured, 37C
MEASUREMENT LABEL: 100 nM Ag Bound (RU)
Numbers only, in RU.

Would you please look over these solved cases?
>  <BINDER>
mAb25479 (antibody, human IgG4, V domains shown) VH: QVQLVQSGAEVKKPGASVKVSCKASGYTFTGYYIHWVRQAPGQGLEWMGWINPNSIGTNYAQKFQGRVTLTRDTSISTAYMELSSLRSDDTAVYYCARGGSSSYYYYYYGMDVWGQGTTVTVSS VL: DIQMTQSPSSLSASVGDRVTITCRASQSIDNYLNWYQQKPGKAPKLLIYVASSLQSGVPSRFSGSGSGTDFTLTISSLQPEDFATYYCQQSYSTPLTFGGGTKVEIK

>  <UNIT ABBREV>
RU

>  <RESULT VALUE>
89

$$$$
>  <BINDER>
mAb22033 (antibody, human IgG4, V domains shown) VH: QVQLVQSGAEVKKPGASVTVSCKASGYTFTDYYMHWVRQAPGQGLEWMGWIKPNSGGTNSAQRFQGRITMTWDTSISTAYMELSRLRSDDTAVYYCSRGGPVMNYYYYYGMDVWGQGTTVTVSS VL: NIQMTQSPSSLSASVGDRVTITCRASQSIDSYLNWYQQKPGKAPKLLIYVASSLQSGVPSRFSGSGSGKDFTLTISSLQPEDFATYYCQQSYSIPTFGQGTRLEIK

>  <UNIT ABBREV>
RU

>  <RESULT VALUE>
126

$$$$
>  <BINDER>
mAb25491 (antibody, human IgG4, V domains shown) VH: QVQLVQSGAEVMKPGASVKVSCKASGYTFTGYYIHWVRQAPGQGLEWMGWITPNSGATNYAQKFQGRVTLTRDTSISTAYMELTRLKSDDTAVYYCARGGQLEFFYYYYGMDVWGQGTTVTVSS VL: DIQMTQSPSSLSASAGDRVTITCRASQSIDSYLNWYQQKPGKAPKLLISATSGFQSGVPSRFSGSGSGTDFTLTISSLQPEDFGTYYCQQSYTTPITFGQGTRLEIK

>  <UNIT ABBREV>
RU

>  <RESULT VALUE>
114

$$$$

Take each entry in turn and give its 100 nM Ag Bound (RU).
1. mAb22809 (antibody, human IgG4, V domains shown) VH: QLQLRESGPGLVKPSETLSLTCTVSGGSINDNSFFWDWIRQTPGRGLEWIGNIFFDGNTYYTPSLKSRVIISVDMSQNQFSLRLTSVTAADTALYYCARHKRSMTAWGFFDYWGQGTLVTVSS VL: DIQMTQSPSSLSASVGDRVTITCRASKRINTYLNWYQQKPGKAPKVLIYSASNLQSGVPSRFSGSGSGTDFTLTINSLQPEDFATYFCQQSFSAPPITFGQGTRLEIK
2. mAb25497 (antibody, human IgG4, V domains shown) VH: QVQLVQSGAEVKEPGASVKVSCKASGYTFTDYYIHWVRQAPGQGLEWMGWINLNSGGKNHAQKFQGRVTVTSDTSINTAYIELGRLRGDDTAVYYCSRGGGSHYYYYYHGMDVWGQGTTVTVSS VL: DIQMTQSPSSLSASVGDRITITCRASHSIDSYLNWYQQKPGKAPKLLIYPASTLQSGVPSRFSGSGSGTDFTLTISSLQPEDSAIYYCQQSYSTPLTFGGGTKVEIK
3. mAb25508 (antibody, human IgG4, V domains shown) VH: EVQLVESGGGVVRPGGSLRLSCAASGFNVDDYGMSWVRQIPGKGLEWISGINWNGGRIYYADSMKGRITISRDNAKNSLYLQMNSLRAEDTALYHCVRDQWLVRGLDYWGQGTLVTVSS VL: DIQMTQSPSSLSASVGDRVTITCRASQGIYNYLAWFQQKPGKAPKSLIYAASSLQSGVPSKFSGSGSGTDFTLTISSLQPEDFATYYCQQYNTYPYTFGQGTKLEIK

8
79
268

Please give measured 100 nM Ag Bound (RU) of the following entry: mAb22035 (antibody, human IgG4, V domains shown) VH: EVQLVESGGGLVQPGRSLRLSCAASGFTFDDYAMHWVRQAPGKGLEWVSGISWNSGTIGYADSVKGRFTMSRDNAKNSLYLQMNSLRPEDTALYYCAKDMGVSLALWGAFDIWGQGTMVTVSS VL: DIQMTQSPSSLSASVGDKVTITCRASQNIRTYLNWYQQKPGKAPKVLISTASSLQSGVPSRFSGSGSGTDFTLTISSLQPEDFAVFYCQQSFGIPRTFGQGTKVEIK
291
